molecular target: BaF3(WT) (Homo sapiens, UniProt P00519); assay: WST (CCK-8) anti-proliferative assay, BaF3 WT; details: read-out: BaF3(WT); BaF3 WT cells, 72 h treatment, CCK-8 readout OD 450 nm
GI50 for assorted compounds
recorded.metric: GI50 (nM)

>>> df
                                    compound  recorded_metric  numeric_result
 0  CC(=O)N[C@@H]1CC[C@H]2c3cc(C(=O)Nc4ccc(OC(F)(F)Cl)cc4)cc(-c4ccc(C)nc4)c3N(CC(C)(C)C)[C@@H]12             GI50              13
 1  COc1cncc(-c2cc(C(=O)Nc3ccc(OC(F)(F)Cl)cc3)cc3c2N(C(C)C)[C@H]2[C@H](NC(C)=O)CC[C@@H]32)c1             GI50              12
 2  CC(C)N1c2c(-c3ccn[nH]3)cc(C(=O)Nc3ccc(OC(F)(F)Cl)cc3)cc2C2CCC(NS(=O)(=O)C3CC3)C21 (stereo not drawn)             GI50              17
 3  CC(C)NS(=O)(=O)NC1CCC2c3cc(C(=O)Nc4ccc(OC(F)(F)Cl)cc4)cc(-c4ccn[nH]4)c3N(C(C)C)C12 (stereo not drawn)             GI50               6
 4  COC(C)(C)CN1c2c(-c3ccn[nH]3)cc(C(=O)Nc3ccc(OC(F)(F)Cl)cc3)cc2C2CCC(NC(C)=O)C21 (stereo not drawn)             GI50              41
 5  CC(=O)N[C@@H]1CC[C@H]2c3cc(C(=O)Nc4ccc(OC(F)(F)Cl)cc4)cc(-c4ccc(C#N)nc4)c3N(C(C)C)[C@@H]12             GI50               5
 6  CC(C)N1c2c(-c3ccn[nH]3)cc(C(=O)Nc3ccc(OC(F)(F)Cl)cc3)cc2C2CCC(NC(=O)Nc3cnccn3)C21 (stereo not drawn)             GI50              14
 7  CC(C)C(=O)NC1CCC2c3cc(C(=O)Nc4ccc(OC(F)(F)Cl)cc4)cc(-c4ccn[nH]4)c3N(C(C)C)C12 (stereo not drawn)             GI50              14
 8  CNS(=O)(=O)NC1CCC2c3cc(C(=O)Nc4ccc(OC(F)(F)Cl)cc4)cc(-c4ccn[nH]4)c3N(C(C)C)C12 (stereo not drawn)             GI50              34
 9  CNC(=O)NC1CCC2c3cc(C(=O)Nc4ccc(OC(F)(F)Cl)cc4)cc(-c4ccn[nH]4)c3N(C(C)C)C12 (stereo not drawn)             GI50              53
10  CC(=O)N1CCC2c3cc(C(=O)Nc4ccc(OC(F)(F)Cl)cc4)cc(-c4ccn[nH]4)c3N(C(C)C)C2C1 (stereo not drawn)             GI50              38
11  CC(C)N1c2c(-c3ccn[nH]3)cc(C(=O)Nc3ccc(OC(F)(F)Cl)cc3)cc2C2CCC(NC(=O)C3CN(C)C3)C21 (stereo not drawn)             GI50             177
12  CC(=O)N[C@@H]1CC[C@H]2c3cc(C(=O)Nc4ccc(OC(F)(F)Cl)cc4)cc(-c4cnc(C)nc4)c3N(CC(C)(C)C)[C@@H]12             GI50              11
13  CC(C)N1c2c(-c3ccn[nH]3)cc(C(=O)Nc3ccc(OC(F)(F)Cl)cc3)cc2C2CCC(N3CCCCC3=O)C21 (stereo not drawn)             GI50               9
14  CC(=O)NC1CCC2c3cc(C(=O)Nc4ccc(OC(F)(F)Cl)cc4)cc(-c4ccn[nH]4)c3N(C3CC3)C12 (stereo not drawn)             GI50              21
15  CC(C)N1c2c(-c3ccn[nH]3)cc(C(=O)Nc3ccc(OC(F)(F)Cl)cc3)cc2C2CC(O)C(O)C21 (stereo not drawn)             GI50              36
16  CC(C)N1c2c(-c3ccn[nH]3)cc(C(=O)Nc3ccc(OC(F)(F)Cl)cc3)cc2C2CCC(NS(=O)(=O)c3nnc[nH]3)C21 (stereo not drawn)             GI50            1060
17  CC(=O)N[C@H]1CC[C@@H]2c3cc(C(=O)Nc4ccc(OC(F)(F)Cl)cc4)cc(-c4cccnc4)c3N(C(C)C)[C@H]12             GI50             186
18  CC(=O)NC1CCC2c3cc(C(=O)Nc4ccc(OC(F)(F)Cl)cc4)cc(-c4cncc(F)c4)c3N(C3CCCC3)C12 (stereo not drawn)             GI50               8
19  CCOC(=O)NC1CCC2c3cc(C(=O)Nc4ccc(OC(F)(F)Cl)cc4)cc(-c4ccn[nH]4)c3N(C(C)C)C12 (stereo not drawn)             GI50              19
20  CC(=O)NC1CCC2c3cc(C(=O)Nc4ccc(OC(F)(F)Cl)cc4)cc(-c4cc[nH]n4)c3N(CC3(C)CC3)C12 (stereo not drawn)             GI50              18
21  CC(=O)N[C@@H]1CC[C@H]2c3cc(C(=O)Nc4ccc(OC(F)(F)Cl)cc4)cc(-c4cncc(C)c4)c3N(C(C)C)[C@@H]12             GI50               4
22  CC(=O)N[C@H]1CC[C@@H]2c3cc(C(=O)Nc4ccc(OC(F)(F)Cl)cc4)cc(-c4ccn[nH]4)c3N(C(C)C)[C@H]12             GI50             535
23  CC(=O)NC1CCC2c3cc(C(=O)Nc4ccc(OC(F)(F)Cl)cc4)cc(-c4cc[nH]n4)c3N(CC(F)(F)F)C12 (stereo not drawn)             GI50              72
